# Tested on: KO-52 cells
# protocol.description: Proliferation assay, spheroid-like growth, KO-52 (MLL wildtype control cell line)
# Type: cell-based, human
# recorded.conditions: Homo sapiens, 192 h, KO-52 control cells, 8 days, confluence as measure of spheroid size; read-out: spheroid assay_OneTime KO-52 IC50
experimental.endpoint: IC50 (µM)
// units = µM; emit number, no label

Look at this compound and give its reported IC50. CC(C)[C@H]([C@H]1C[C@@H](N2CC[C@@](C)(O)C2)C1)N1CC2(CCN(c3ncnnc3Oc3ccc(F)cc3-c3cncnc3C3CC3)C2)C1 (single isomer, unassigned) 4.36

Look at this compound and give its reported IC50. COC1CN([C@H]2C[C@@H]([C@H](C(C)C)N3CC4(CCN(c5ncnnc5Oc5ccc(F)cc5-c5nnccc5C5CC5)C4)C3)C2)C1 (single isomer, unassigned) 3.25

Look at this compound and give its reported IC50. CC(C)C([C@H]1C[C@H](N2C[C@H]3COC[C@H]3C2)C1)N1CC2(CCN(c3ncnnc3Oc3ccc(F)cc3-c3cncc(C#N)c3C3CC3)C2)C1 (some centres unmarked) 1.53

Look at this compound and give its reported IC50. CC(C)[C@H]([C@H]1C[C@@H](N2CCC(O)C(F)C2)C1)N1CC2(CCN(c3ncnnc3Oc3ccc(F)cc3-c3cncnc3C3CC3)C2)C1 (single isomer, unassigned) 5.09

---

Exercise: state measured pIC50 for each of the compounds provided.
# System: KO-52 cells
# protocol.description: Proliferation assay, spheroid-like growth, KO-52 (MLL wildtype control cell line)
# Type: cell-based, human
# recorded.conditions: Homo sapiens, 192 h, KO-52 control cells, 8 days, confluence as measure of spheroid size; read-out: spheroid assay_OneTime KO-52 IC50
pIC50: −log10 of the molar value.

Look at this compound and give its reported pIC50. CC(C)[C@H]([C@H]1C[C@@H](N2CC[C@@]3(CCN(C)C3=O)C2)C1)N1CC2(CCN(c3ncnnc3Oc3ccc(F)cc3-c3cncnc3C3CC3)C2)C1 (single isomer, unassigned) < 4.82

Look at this compound and give its reported pIC50. CC(C)[C@H]([C@H]1C[C@@H](N2CC3(CCN(C)C3=O)C2)C1)N1CC2(CCN(c3ncnnc3Oc3ccc(F)cc3-c3cncnc3C3CC3)C2)C1 (single isomer, unassigned) 5.71

Look at this compound and give its reported pIC50. CC(C)[C@H]([C@H]1C[C@@H](N2CC3(CCO3)C2)C1)N1CC2(CCN(c3ncnnc3Oc3ccc(F)cc3-c3cncnc3C3CC3)C2)C1 (single isomer, unassigned) 5.45

Look at this compound and give its reported pIC50. CC(C)[C@@H]([C@H]1C[C@H](N2CC[C@](C)(O)C2)C1)N1CC2(CCN(c3ncnnc3Oc3ccc(F)cc3-c3cnncc3C3CC3)C2)C1 (single isomer, unassigned) < 4.82

Look at this compound and give its reported pIC50. CC(C)[C@@H]([C@H]1C[C@@H](N2CCC(O)CC2)C1)N1CC2(CCN(c3ncnnc3Oc3ccc(F)cc3-c3cncnc3C3CC3)C2)C1 (single isomer, unassigned) < 4.82

Look at this compound and give its reported pIC50. CC(C)[C@H](C1CN(CC2COC2)C1)N1CC2(CCN(c3ncnnc3Oc3ccc(F)cc3-c3cncnc3C3CC3)C2)C1 (single isomer, unassigned) < 4.82

Look at this compound and give its reported pIC50. CC(C)[C@H]([C@H]1C[C@H](N2CCC3(CCO3)CC2)C1)N1CC2(CCN(c3ncnnc3Oc3ccc(F)cc3-c3cnncc3C3CC3)C2)C1 (single isomer, unassigned) [Compound 280b] < 4.82

Look at this compound and give its reported pIC50. CC(C)[C@H]([C@H]1C[C@@H](NC(=O)C2CC2)C1)N1CC2(CCN(c3ncnnc3Oc3ccc(F)cc3-c3n[nH]c(=O)cc3C3CC3)C2)C1 (single isomer, unassigned) 5.13

Look at this compound and give its reported pIC50. CC(C)[C@H]([C@H]1C[C@@H](N2CC3(CCO3)C2)C1)N1CC2(CCN(c3ncnnc3Oc3ccc(F)cc3-c3cnncc3C3CC3)C2)C1 (single isomer, unassigned) < 4.82

---

# System: MOLM14 cells
# protocol.description: Proliferation assay, spheroid-like growth, MOLM14 (MLL-AF9 rearranged)
# Assay type: cell-based, human
# recorded.conditions: Homo sapiens, MOLM-14, 192 h, 8 days, confluence as measure of spheroid size, read-out: spheroid assay_OneTime MOLM14 IC50
Exercise: state measured IC50 for each of the compounds provided.
// units = nM; emit number, no label

Look at this compound and give its reported IC50. CC(C)[C@@H]([C@H]1C[C@H](N2CC[C@@](C)(O)C2)C1)N1CC2(CCN(c3ncnnc3Oc3ccc(F)cc3-c3cnncc3C3CC3)C2)C1 (single isomer, unassigned) [Compound 115] 430

Look at this compound and give its reported IC50. CC(C)[C@@H]([C@H]1C[C@]2(COC(=O)N2)C1)N1CC2(CCN(c3ncnnc3Oc3ccc(F)cc3-c3cncnc3C3CC3)C2)C1 (single isomer, unassigned) [Compound 320] 28

Look at this compound and give its reported IC50. CC(C)[C@H]([C@H]1C[C@H](N2CCC(O)C(F)C2)C1)N1CC2(CCN(c3ncnnc3Oc3ccc(F)cc3-c3cncnc3C3CC3)C2)C1 (single isomer, unassigned) [Compound 33] 7

---

# Tested on: KO-52 cells
# protocol.description: Proliferation assay, spheroid-like growth, KO-52 (MLL wildtype control cell line)
# Format: cell-based, human
# recorded.conditions: Homo sapiens, 192 h, KO-52 control cells, 8 days, confluence as measure of spheroid size; read-out: spheroid assay_OneTime KO-52 IC50
# Experimental: The anti-proliferative effect of menin/MLL protein/protein interaction inhibitor test compounds was assessed in human leukemia cell lines. […] In order to assess the anti-proliferative effects, 200 MOLM14 cells, or 300 KO-52 cells were seeded in 200 μl media per well in 96-well round bottom, ultra-low attachment plates (Costar, catalogue number 7007). […] Spheroid like growth was measured in real-time by live-cell imaging (IncuCyteZOOM, Essenbio, 4× objective) acquiring images at day 8. […]
Exercise: state measured pIC50 for each of the compounds provided.
FYI, pIC50 means -log10 of a concentration in mol per litre.

Look at this compound and give its reported pIC50. CC(=O)N1CC2(C1)CN([C@H]1C[C@@H]([C@H](C(C)C)N3CC4(CCN(c5ncnnc5Oc5ccc(F)cc5-c5cnc(C)cc5C5CC5)C4)C3)C1)C2 (single isomer, unassigned) 5.00

Look at this compound and give its reported pIC50. CC(C)[C@H]([C@H]1C[C@H](N2CC[C@H](F)C2)C1)N1CC2(CCN(c3ncnnc3Oc3ccc(F)cc3-c3cncnc3C3CC3)C2)C1 (single isomer, unassigned) 5.55

---

Exercise: state measured pIC50 for each of the compounds provided.
# Test system: MOLM14 cells
# protocol.description: Proliferation assay, spheroid-like growth, MOLM14 (MLL-AF9 rearranged)
# Assay type: cell-based, human
# recorded.conditions: Homo sapiens, MOLM-14, 192 h, 8 days, confluence as measure of spheroid size, read-out: spheroid assay_OneTime MOLM14 IC50
FYI, pIC50 means -log10 of a concentration in mol per litre.

Look at this compound and give its reported pIC50. CC(C)[C@H]([C@H]1C[C@@H](Nc2cc3nccn3cn2)C1)N1CC2(CCN(c3ncnnc3Oc3ccc(F)cc3-c3cncnc3C3CC3)C2)C1 (single isomer, unassigned) 8.70

Look at this compound and give its reported pIC50. CC(=O)N1CC2(CCCN2[C@H]2C[C@@H]([C@@H](C(C)C)N3CC4(CCN(c5ncnnc5Oc5ccc(F)cc5-c5cncnc5C5CC5)C4)C3)C2)C1 (single isomer, unassigned) 6.46

Look at this compound and give its reported pIC50. CO[C@H]1CCN([C@H]2C[C@@H]([C@H](C(C)C)N3CC4(CCN(c5ncnnc5Oc5ccc(F)cc5-c5cnncc5C5CC5)C4)C3)C2)C1 (single isomer, unassigned) 9.00

Look at this compound and give its reported pIC50. CC(C)[C@H]([C@H]1C[C@@H](NC(=O)C2CC2)C1)N1CC2(CCN(c3ncnnc3Oc3ccc(F)cc3-c3nnccc3C3CC3)C2)C1 (single isomer, unassigned) 7.49

Look at this compound and give its reported pIC50. CC(C)[C@H]([C@H]1C[C@@H](NC(=O)C2CC2)C1)N1CC2(CCN(c3ncnnc3Oc3ccc(F)cc3-c3cncnc3C3CC3)C2)C1 (single isomer, unassigned) 8.15

Look at this compound and give its reported pIC50. CC(=O)N1CC2CN([C@H]3C[C@@H]([C@@H](C(C)C)N4CC5(CCN(c6ncnnc6Oc6ccc(F)cc6-c6cncnc6C6CC6)C5)C4)C3)CC2C1 (single isomer, unassigned) 8.70

Look at this compound and give its reported pIC50. CC(C)[C@H]([C@H]1C[C@@H](N2CCC[C@H](O)C2)C1)N1CC2(CCN(c3ncnnc3Oc3ccc(F)cc3-c3cccnc3C3CC3)C2)C1 (single isomer, unassigned) 6.20

Look at this compound and give its reported pIC50. CC(=O)Nc1nccc(N[C@H]2C[C@@H]([C@@H](C(C)C)N3CC4(CCN(c5ncnnc5Oc5ccc(F)cc5-c5cncnc5C5CC5)C4)C3)C2)n1 (single isomer, unassigned) 8.52
